Target: truncated human beta-secretase (residues 1-458, His6-tagged at the C-terminus) (Homo sapiens, UniProt P56817)
Construct: truncated human beta-secretase (residues 1-458, His6-tagged at the C-terminus); His6 (C); made in house; host or cells: insect cells D. melanogaster S2 (baculovirus expression system (so in the source))
Sequence (P56817 22-458): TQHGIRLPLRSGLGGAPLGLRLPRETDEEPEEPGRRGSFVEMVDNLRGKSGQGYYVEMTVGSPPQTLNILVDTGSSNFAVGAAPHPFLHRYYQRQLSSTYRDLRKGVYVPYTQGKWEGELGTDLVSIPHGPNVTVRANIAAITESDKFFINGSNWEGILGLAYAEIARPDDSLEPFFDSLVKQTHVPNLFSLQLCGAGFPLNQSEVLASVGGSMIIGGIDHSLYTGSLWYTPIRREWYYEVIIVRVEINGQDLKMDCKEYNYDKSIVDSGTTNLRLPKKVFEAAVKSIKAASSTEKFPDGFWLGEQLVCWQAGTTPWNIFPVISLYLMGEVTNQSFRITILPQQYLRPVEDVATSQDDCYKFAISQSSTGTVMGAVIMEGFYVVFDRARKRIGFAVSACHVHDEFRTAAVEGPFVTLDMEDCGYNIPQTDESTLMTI
Experiment: BACE fluorescence quench assay
Format: biochemical
Settings: in vitro enzyme activity, BACE fluorescence assay, pH 4.5; read-out: IC50
Here the recorded IC50 is given for each entry.

Solved entries (count: 7):
# compound, recorded.value
rows = [
    ("CC(C)=CC(CCO)C1CC2(N=C(N)N(C)O2)c2cc(-c3ccc(F)c(F)c3)ccc2O1 (centres unmarked) [Compound 456]", "10000 to 50000 nM"),
    ("CN1C(=O)C2(CC3(CCCOC3)Oc3ccc(-c4cc(F)ccc4F)cc32)N=C1N (centres unmarked) [Compound 332]", "100 to 500 nM"),
    ("Cc1cccc(-c2ccc3c(c2)C2(CC4(CCCOC4)O3)N=C(N)N(C)C2=O)c1 (centres unmarked) [Compound 301]", "100 to 500 nM"),
    ("CN1OC2(CC(C3CCOC3)Oc3ccc(-c4cccc(C#N)c4)cc32)N=C1N (centres unmarked) [Compound 94]", "500 to 1000 nM"),
    ("CC(C)=CC(CCO)[C@@H]1C[C@@]2(N=C(N)N(C)O2)c2cc(-c3cc(F)cc(F)c3F)ccc2O1 (some centres unmarked) [Compound 392]", "1000 to 5000 nM"),
    ("CN1OC2(C[C@H]([C@H]3CCOC(C)(C)C3)Oc3ccc(-c4ccc(F)c(F)c4)cc32)N=C1N (some centres unmarked) [Compound 365]", "500 to 1000 nM"),
    ("CN1OC2(CC3(CCCc4ccccc4C3)Oc3ccc(-c4ccc5cc[nH]c5c4)cc32)N=C1N (centres unmarked) [Compound 352]", "500 to 1000 nM"),
]

Query compound follows.
May I ask what IC50 has been recorded for CN1C(=O)C2(CC3(CCCOC3)Oc3ccc(-c4cc(F)cc(Cl)c4)cc32)N=C1N (centres unmarked) [Compound 286] ?
100 to 500 nM

###

Molecular target: truncated human beta-secretase (residues 1-458, His6-tagged at the C-terminus) (Homo sapiens, UniProt P56817)
Construct: truncated human beta-secretase (residues 1-458, His6-tagged at the C-terminus); His6 (C); made in house; host or cells: insect cells D. melanogaster S2 (baculovirus expression system (so in the source))
Assay: BACE fluorescence quench assay
Type: biochemical
Conditions: in vitro enzyme activity, BACE fluorescence assay, pH 4.5; read-out: IC50
pIC50: −log10 of the molar value.
recorded.endpoint: pIC50

Solved cases (3 shown):
# compound, recorded.value
records = [
    ("CN1C(=O)C2(CC3(CCCCC3)Oc3ccc(-c4ccncc4)cc32)N=C1N (stereo not shown)", "4.30 to 5.00"),
    ("CN1OC2(C[C@H](C3CCCOC3)Oc3ccc(-c4cccnc4F)cc32)N=C1N (stereo partly shown) [Compound 89b]", "5.30 to 6.00"),
    ("CN1OC2(CC3(CCCOC3)Oc3ccc(C#CC4CC4)cc32)N=C1N (stereo not shown)", "5.30 to 6.00"),
]

Now turn to the next compound.
If you can, please state the reported pIC50 value of CN1O[C@]2(C[C@@H]([C@H]3CCCOC3)Oc3ccc(-c4cc(F)cc(F)c4)cc32)N=C1N .
6.00 to 6.30

###

Biological target: truncated human beta-secretase (residues 1-458, His6-tagged at the C-terminus) (Homo sapiens)
Construct: truncated human beta-secretase (residues 1-458, His6-tagged at the C-terminus); His6 (C); made in house; host or cells: insect cells D. melanogaster S2 (baculovirus expression system (so in the source))
Assay: BACE fluorescence quench assay
Format: biochemical
Details: in vitro enzyme activity, BACE fluorescence assay, pH 4.5; read-out: IC50
pIC50: −log10 of the molar value.
recorded.endpoint: pIC50

For the molecule shown here, COc1cccc(C2CC3(N=C(N)N(C)C3=O)c3cc(Br)ccc3O2)c1 (centres unmarked) , give the reported pIC50.
5.00 to 5.30

What do we get for CSc1cccc(-c2ccc3c(c2)[C@]2(C[C@]4(CCCOC4)O3)N=C(N)N(C)C2=O)c1 ?
6.30 to 7.00

Now consider CC(C)=CC(CCO)C1CC2(N=C(N)N(C)O2)c2cc(-c3cccc(F)c3)ccc2O1 (centres unmarked) .
5.00 to 5.30

###

Molecular target: truncated human beta-secretase (residues 1-458, His6-tagged at the C-terminus) (Homo sapiens, UniProt P56817)
Construct: truncated human beta-secretase (residues 1-458, His6-tagged at the C-terminus); His6 (C); made in house; host or cells: insect cells D. melanogaster S2 (baculovirus expression system (so in the source))
Test: BACE fluorescence quench assay
Type: biochemical
Details: in vitro enzyme activity, BACE fluorescence assay, pH 4.5; read-out: IC50
recorded.endpoint: IC50

Take a look at these entries with their results.
# compound, recorded.endpoint, recorded.value
rows = [
    ("CN1OC2(CC3(CCCc4ccccc4C3)Oc3ccc(C#CC4CCCC4)cc32)N=C1N (centres unmarked) [Compound 317]", "IC50", "100 to 500 nM"),
    ("N#Cc1cccc(-c2ccc3c(c2)C2(CC(c4ccccc4)O3)N=C(N)N(CC3CCCCC3)C2=O)c1 (centres unmarked) [Compound 18]", "IC50", "500 to 1000 nM"),
    ("CN1OC2(CC3(CCCc4ccccc43)Oc3ccc(-c4cc(F)cc(F)c4)cc32)N=C1N (centres unmarked) [Compound 402]", "IC50", "1000 to 5000 nM"),
    ("CN1O[C@]2(C[C@@H](C[C@H]3CCCO3)Oc3ccc(-c4cccc(C#N)c4)cc32)N=C1N (stereo in doubt) [Compound 360]", "IC50", "500 to 1000 nM"),
    ("CC1CCC2(CO1)CC1(N=C(N)N(C)O1)c1cc(-c3cccc(C#N)c3)ccc1O2 (centres unmarked) [Compound 387]", "IC50", "1000 to 5000 nM"),
    ("CN1C(=O)C2(CC(c3ccccc3)Oc3ccc(-c4cccc(C5CC5)c4)cc32)N=C1N (centres unmarked) [Compound 11]", "IC50", "100 to 500 nM"),
    ("CC1CCC2(CC1)CC1(N=C(N)N(C)C1=O)c1cc(-c3cccc(C#N)c3)ccc1O2 (centres unmarked) [Compound 75]", "IC50", "100 to 500 nM"),
]

Fill in: IC50 of CN1C(=O)C2(CC(c3cccc(F)c3)Oc3ccc(Br)cc32)N=C1N (centres unmarked) [Compound 38] is ___
1000 to 5000 nM

###

Measured IC50 by item
Molecular target: truncated human beta-secretase (residues 1-458, His6-tagged at the C-terminus) (Homo sapiens)
Construct: truncated human beta-secretase (residues 1-458, His6-tagged at the C-terminus); His6 (C); made in house; host or cells: insect cells D. melanogaster S2 (baculovirus expression system (so in the source))
Assay: BACE fluorescence quench assay
Assay type: biochemical
Settings: in vitro enzyme activity, BACE fluorescence assay, pH 4.5; read-out: IC50

Example entries and their recorded answers appear below.
# compound, IC50
measured = [
    ("CC1CCCC2(C1)CC1(N=C(N)N(C)C1=O)c1cc(-c3cccc(C#N)c3)ccc1O2 (centres unmarked)", "1000 to 5000 nM"),
    ("CN1OC2(C[C@H]([C@@H]3CCOC(C)(C)C3)Oc3ccc(-c4ccc(F)c(F)c4)cc32)N=C1N (some centres unmarked)", "500 to 1000 nM"),
]

May I ask what IC50 has been recorded for CN1OC2(CC3(CCC(Oc4ccccc4)CC3)Oc3ccc(-c4cccc(C#N)c4)cc32)N=C1N (centres unmarked) ?
1000 to 5000 nM

How about CN1OC2(CC3(CCCOC3)Oc3ccc(-c4cccc(Cl)c4)cc32)N=C1N (centres unmarked) ?
100 to 500 nM

Next compound up: CN1C(=O)C2(CC(c3cccc(F)c3F)Oc3ccc(-c4cccc(C#N)c4)cc32)N=C1N (centres unmarked)
100 to 500 nM

Input CN1C(=O)C2(CC(c3ccccc3F)Oc3ccc(-c4cccc(C#N)c4)cc32)N=C1N (centres unmarked)
100 to 500 nM

Try this compound too: CN1OC2(CC3(CCCC4CCCCC43)Oc3ccc(-c4cccc(C#N)c4)cc32)N=C1N (centres unmarked)
5000 to 10000 nM

Param item: Cc1cc(C)cc(-c2ccc3c(c2)[C@]2(C[C@@]4(CCCOC4)O3)N=C(N)N(C)C2=O)c1
100 to 500 nM

###

Molecular target: truncated human beta-secretase (residues 1-458, His6-tagged at the C-terminus) (Homo sapiens)
Construct: truncated human beta-secretase (residues 1-458, His6-tagged at the C-terminus); His6 (C); made in house; host or cells: insect cells D. melanogaster S2 (baculovirus expression system (so in the source))
Test: BACE fluorescence quench assay
Type: biochemical
Details: in vitro enzyme activity, BACE fluorescence assay, pH 4.5; read-out: IC50
Listed here: items and their measured IC50.

Recorded IC50, per entry:
# compound, IC50
data = [
    ("CC(C)=CC(CC(C)(C)O)C1CC2(N=C(N)N(C)O2)c2cc(-c3cccc(C#N)c3)ccc2O1 (stereo not shown)", "1000 to 5000 nM"),
    ("CN1OC2(CC(C3CCOCC3)Oc3ccc(-c4cc(Cl)cc(C#N)c4)cc32)N=C1N (stereo not shown)", "500 to 1000 nM"),
    ("CN1C(=O)C2(CC(c3cccc(F)c3F)Oc3ccc(Br)cc32)N=C1N (stereo not shown)", "5000 to 10000 nM"),
]

Consider the record given below.
Reported IC50, compound CN1C(=O)C2(CC3(CCCOC3)Oc3ccc(-c4cccc(C#N)c4F)cc32)N=C1N (stereo not shown) : ____
100 to 500 nM
